molecular target: FGFR4 (h) (Homo sapiens); assay: FGFR4 (enzymatic assay), TR-FRET; assay type: biochemical; conditions: read-out: FGFR 4 pIC50 (converted)
Sequence (P22455 22-802): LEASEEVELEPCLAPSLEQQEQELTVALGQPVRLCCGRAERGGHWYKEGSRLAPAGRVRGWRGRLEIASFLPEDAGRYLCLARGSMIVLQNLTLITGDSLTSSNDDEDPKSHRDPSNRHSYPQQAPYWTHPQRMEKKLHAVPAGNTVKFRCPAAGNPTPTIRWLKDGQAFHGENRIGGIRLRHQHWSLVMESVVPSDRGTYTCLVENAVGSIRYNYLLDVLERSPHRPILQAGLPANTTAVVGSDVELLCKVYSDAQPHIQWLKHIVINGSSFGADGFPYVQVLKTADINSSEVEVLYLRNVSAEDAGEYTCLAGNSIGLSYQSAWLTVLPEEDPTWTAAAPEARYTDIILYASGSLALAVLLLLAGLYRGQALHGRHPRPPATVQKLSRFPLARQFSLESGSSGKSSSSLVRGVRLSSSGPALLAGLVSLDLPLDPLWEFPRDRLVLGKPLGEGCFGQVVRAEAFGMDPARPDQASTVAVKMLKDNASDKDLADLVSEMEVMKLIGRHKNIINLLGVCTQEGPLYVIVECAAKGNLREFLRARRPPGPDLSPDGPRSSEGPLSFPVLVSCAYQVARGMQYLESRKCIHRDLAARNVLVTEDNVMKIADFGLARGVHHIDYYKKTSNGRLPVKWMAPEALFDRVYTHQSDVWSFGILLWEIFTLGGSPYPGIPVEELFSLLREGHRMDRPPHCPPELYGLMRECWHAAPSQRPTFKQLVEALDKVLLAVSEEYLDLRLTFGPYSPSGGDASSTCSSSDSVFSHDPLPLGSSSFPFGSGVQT
RECORDED ENDPOINT: IC50 (nM)

| MOLECULE | IC50 [nM] |
| --- | --- |
| COCC(O)CN(c1cc(OC)cc(OC)c1)c1ccc2ncc(-c3cccnc3)nc2c1 (single isomer, unassigned) [Compound 46] | 47.9 |
| COc1cc(OC)cc(N(CCCO)c2ccc3ncc(-c4ccnc(N)c4)nc3c2)c1 | 13.2 |
| COc1cc(OC)cc(N(CCO)c2ccc3ncc(-c4ccc(N5CCN(C(=O)OC(C)(C)C)CC5)cc4)nc3c2)c1 | 95.5 |
| COc1cc(OC)cc(N(CC2CC2)c2ccc3ncc(-c4ccc5c(c4)OCO5)nc3c2)c1 | 3550 |
| COc1cc(OC)cc(N(CCO)c2ccc3ncc(/C(C)=N/OC(C)(C)C)nc3c2)c1 | 871 |

[P] COCC(CN(c1cc(OC)cc(OC)c1)c1ccc2ncc(-c3cccnc3)nc2c1)OC(C)=O (single isomer, unassigned) [Compound 76]
[Q] CNCCN(c1cc(OC)cc(OC)c1)c1ccc2ncc(-c3ccc(NC(=O)OC(C)(C)C)nc3)nc2c1
[R] COc1cc(OC)cc(N(CC2CC2)c2ccc3ncc(-c4cnco4)nc3c2)c1
[S] COc1cc(OC)cc(N(CC2CC2)c2ccc3ncc(N4CCN(C)CC4)nc3c2)c1
## Task Could you please sort these 4 entries by IC50 from high to low? List the labels in the requested order.
## Result S, R, P, Q
(S: 2880 nM, R: 275 nM, P: 107 nM, Q: 63.1 nM)

[A] COc1cc(OC)cc(N(CC2CC2)c2ccc3ncc(-c4cccc(N5CCOCC5)c4)nc3c2)c1
[B] COc1cc(OC)cc(N(CCNC(C)C)c2ccc3ncc(-c4ccnn4C4CCCCO4)nc3c2)c1 (stereo not shown)
[C] COc1cc(OC)cc(N(CC2CC2)c2ccc3ncc(-c4c[nH]cn4)nc3c2)c1
[D] COc1cc(OC)cc(N(CCNC(C)C)c2ccc3ncc(C(=O)N4CCCCC4)nc3c2)c1
[E] CNC(=O)c1cc(-c2cnc3ccc(N(CCCNCC(F)(F)F)c4cc(OC)cc(OC)c4)cc3n2)ccn1
## Task Could you please sort these 5 entries by IC50 from high to low? List the labels in the requested order.
## Result A, D, E, C, B

[I] COc1cc(OC)cc(N(CCNC(C)C)c2ccc3ncc(-n4cnc(COC(C)=O)c4)nc3c2)c1
[II] COc1cc(OC)cc(N(CC2CC2)c2ccc3ncc(-n4cnc(CO)c4)nc3c2)c1
## Task Compare I and II and name the one whose reported IC50 is smaller. Answer by stating the label of the chosen item.
## Result I
(I: 31.6 nM, II: 132 nM)
